Data credit: PubChem BioAssay (NCI)

Test system: HL-60(TB) leukemia
assay_method_text: NCI tumour cell line growth inhibition, 48 h
recorded_metric: TGI (µM)
Give bare numbers, in µM.

Worked cases, answers included:
CON(C)C(=O)CNC(=O)OCC1c2ccccc2-c2ccccc21 = 90.9
CNc1ccc(C(=O)CC(O)CCC(C)C2OC(=O)CC(O)CC(=O)CC(O)CC(O)CC(O)CC(O)CC3(O)CC(O)C(C(=O)OC)C(CC(O[C@@H]4O[C@H](C)[C@@H](O)[C@H](N)[C@@H]4O)/C=C/C=C/C=C/C=C/C=C/C=C/C=C/C2C)O3)cc1 (stereo not given in full) = 7.04

Now let's try a different one.
Given item `COc1ccc2ccccc2c1/C=C/C(=O)c1ccccc1` , the value recorded as its TGI is 4.33
